conditions: in ethanol, 303.2 K
MEASURED PROPERTY: solubility (mole fraction)
Give bare numbers.

Q. For `CO[C@H]1/C=C/O[C@@]2(C)Oc3c(C)c(O)c4c(O)c(c(/C=N/N5CCN(C)CC5)c(O)c4c3C2=O)NC(=O)/C(C)=C\C=C\[C@H](C)[C@H](O)[C@@H](C)[C@@H](O)[C@@H](C)[C@H](OC(C)=O)[C@@H]1C` , what is its reported solubility (mole fraction)?
A. 0.00016

###

details: in limonene, 298.2 K
MEASURED PROPERTY: solubility (mole fraction)
One number for each entry.

Q. For `CO[C@H]1/C=C/O[C@@]2(C)Oc3c(C)c(O)c4c(O)c(c(/C=N/N5CCN(C)CC5)c(O)c4c3C2=O)NC(=O)/C(C)=C\C=C\[C@H](C)[C@H](O)[C@@H](C)[C@@H](O)[C@@H](C)[C@H](OC(C)=O)[C@@H]1C` , what is its reported solubility (mole fraction)?
A. 0.0023

###

conditions: in eugenol, 303.2 K
MEASURED PROPERTY: solubility (mole fraction)
One number for each entry.

Q. For `CO[C@H]1/C=C/O[C@@]2(C)Oc3c(C)c(O)c4c(O)c(c(/C=N/N5CCN(C)CC5)c(O)c4c3C2=O)NC(=O)/C(C)=C\C=C\[C@H](C)[C@H](O)[C@@H](C)[C@@H](O)[C@@H](C)[C@H](OC(C)=O)[C@@H]1C` , what is its reported solubility (mole fraction)?
A. 0.00031

###

conditions: in isopropanol, 313.2 K
MEASURED PROPERTY: solubility (mole fraction)
One number for each entry.

Q. For `CO[C@H]1/C=C/O[C@@]2(C)Oc3c(C)c(O)c4c(O)c(c(/C=N/N5CCN(C)CC5)c(O)c4c3C2=O)NC(=O)/C(C)=C\C=C\[C@H](C)[C@H](O)[C@@H](C)[C@@H](O)[C@@H](C)[C@H](OC(C)=O)[C@@H]1C` , what is its reported solubility (mole fraction)?
A. 0.0016

###

details: in triacetin, 298.2 K
MEASURED PROPERTY: solubility (mole fraction)

Q. For `CO[C@H]1/C=C/O[C@@]2(C)Oc3c(C)c(O)c4c(O)c(c(/C=N/N5CCN(C)CC5)c(O)c4c3C2=O)NC(=O)/C(C)=C\C=C\[C@H](C)[C@H](O)[C@@H](C)[C@@H](O)[C@@H](C)[C@H](OC(C)=O)[C@@H]1C` , what is its reported solubility (mole fraction)?
A. 0.00049

###

conditions: in sec-butanol, 303.2 K
MEASURED PROPERTY: solubility (mole fraction)

Q. For `CO[C@H]1/C=C/O[C@@]2(C)Oc3c(C)c(O)c4c(O)c(c(/C=N/N5CCN(C)CC5)c(O)c4c3C2=O)NC(=O)/C(C)=C\C=C\[C@H](C)[C@H](O)[C@@H](C)[C@@H](O)[C@@H](C)[C@H](OC(C)=O)[C@@H]1C` , what is its reported solubility (mole fraction)?
A. 0.00051

###

settings: in eugenol, 318.2 K
MEASURED PROPERTY: solubility (mole fraction)
Give bare numbers.

Q. For `CO[C@H]1/C=C/O[C@@]2(C)Oc3c(C)c(O)c4c(O)c(c(/C=N/N5CCN(C)CC5)c(O)c4c3C2=O)NC(=O)/C(C)=C\C=C\[C@H](C)[C@H](O)[C@@H](C)[C@@H](O)[C@@H](C)[C@H](OC(C)=O)[C@@H]1C` , what is its reported solubility (mole fraction)?
A. 0.00059
